subject.of.test: HLA-B*07:02
procedure.text: IEDB peptide-MHC binding, purified MHC/competitive/radioactivity; bounds were set here for any values at or beyond the usual limits of such assays
measurement.setup: source organism: Bordetella pertussis
parameter: IC50 (nM)

{"chain": "KPDRAARVA", "unit.annotation": "nM", "assay.result": 461}
{"chain": "RVRALAWLL", "unit.annotation": "nM", "assay.result": 413}

* * *

subject.of.test: HLA-B*35:01
procedure.text: IEDB peptide-MHC binding, purified MHC/competitive/radioactivity; bounds were set here for any values at or beyond the usual limits of such assays
measurement.setup: source organism: Bordetella pertussis
Item-by-item account of IC50

{"chain": "HVSKEEQYY", "IC50 [µM]": 69.9}
{"chain": "DATLVGAKF", "IC50 [µM]": 59.8}
